- System: LAPC4 prostate cancer cells, which express the AKT1 E17K allele
- Protocol Summary: Antiproliferative effects in LAPC4 cells (CellTiter Glo, 72 h)
- Format: cell-based
- Experimental Context: Homo sapiens, LAPC4, 72 h, read-out: LAPC4 proliferation IC50: GeoMean IC50
pIC50: −log10 of the molar value.
pIC50 values, listed per item

>>> measurement("Cc1ccn(-c2ccc3nc(-c4cccnc4N)n(-c4ccc5c(c4)CC[C@@H]5NC(=O)c4ccc(O)c(C=O)c4)c3n2)n1 [Example 95]")
"7.00 to 8.00"

[Q] Quick one: pIC50 of COc1cncc(-c2ccc3nc(-c4cccnc4N)n(-c4ccc5c(c4)CC[C@@H]5NC(=O)c4ccc(O)c(C=O)c4)c3n2)n1 [Example 80] ?
[A] 5.70 to 7.00

[Q] Given the entry COc1ccn(-c2ccc3nc(-c4cccnc4N)n(-c4ccc5c(c4)CC[C@@H]5NC(=O)c4ccc(O)c(C=O)c4)c3n2)n1 [Example 106] , report its measured pIC50.
[A] 7.00 to 8.00

* * *

- Tested on: LAPC4 prostate cancer cells, which express the AKT1 E17K allele
- Protocol Summary: Antiproliferative effects in LAPC4 cells (CellTiter Glo, 72 h)
- Assay type: cell-based
- Experimental Context: Homo sapiens, LAPC4, 72 h, read-out: LAPC4 proliferation IC50: GeoMean IC50
pIC50: −log10 of the molar value.
Recorded Endpoint: pIC50

The cases that follow already have their pIC50 on record.
>>> measurement("Nc1ncccc1-c1nc2ccc(-c3ccn(C(F)F)n3)nc2n1-c1ccc2c(c1)CC[C@@H]2NC(=O)c1ccc(O)c(C=O)c1 [Example 113]")
"7.00 to 8.00"
>>> measurement("Nc1ncccc1-c1nc2ccc(-c3ccccc3)nc2n1-c1ccc2c(c1)CC[C@@H]2NC(=O)c1cc(C=O)c(O)cc1Cl [Example 34]")
"5.70 to 7.00"

Consider now this further compound.
[Q] Tell me the measured pIC50 of Nc1ncccc1-c1nc2ccc(-n3cccn3)nc2n1-c1ccc2c(c1)CC[C@@H]2NC(=O)c1cc(C=O)c(O)c(F)c1Cl [Example 110] , please.
[A] 5.70 to 7.00

* * *

- Tested on: LAPC4 prostate cancer cells, which express the AKT1 E17K allele
- Protocol Summary: Antiproliferative effects in LAPC4 cells (CellTiter Glo, 72 h)
- Assay type: cell-based
- Experimental Context: Homo sapiens, LAPC4, 72 h, read-out: LAPC4 proliferation IC50: GeoMean IC50
Overview of recorded IC50 for various compounds

[Q] Form field: reported IC50 of Cc1nc(-c2ccc3nc(-c4cccnc4N)n(-c4ccc5c(c4)CC[C@@H]5NC(=O)c4ccc(O)c(C=O)c4)c3n2)no1 [Example 173]
[A] 100 to 2000 nM

[Q] Name the recorded IC50 for Nc1ncccc1-c1nc2ccc(-n3nccn3)nc2n1-c1ccc2c(c1)CC[C@@H]2NC(=O)c1ccc(O)c(C=O)c1 [Example 91] .
[A] 10 to 100 nM

[Q] Please report the recorded IC50 for Cc1cnc(-c2ccc3nc(-c4cccnc4N)n(-c4ccc5c(c4)CC[C@@H]5NC(=O)c4cc(C=O)c(O)c(F)c4F)c3n2)s1 [Example 186] .
[A] 10 to 100 nM

* * *

- Target System: AKT2 (Homo sapiens)
- Sequence (P31751 whole entry): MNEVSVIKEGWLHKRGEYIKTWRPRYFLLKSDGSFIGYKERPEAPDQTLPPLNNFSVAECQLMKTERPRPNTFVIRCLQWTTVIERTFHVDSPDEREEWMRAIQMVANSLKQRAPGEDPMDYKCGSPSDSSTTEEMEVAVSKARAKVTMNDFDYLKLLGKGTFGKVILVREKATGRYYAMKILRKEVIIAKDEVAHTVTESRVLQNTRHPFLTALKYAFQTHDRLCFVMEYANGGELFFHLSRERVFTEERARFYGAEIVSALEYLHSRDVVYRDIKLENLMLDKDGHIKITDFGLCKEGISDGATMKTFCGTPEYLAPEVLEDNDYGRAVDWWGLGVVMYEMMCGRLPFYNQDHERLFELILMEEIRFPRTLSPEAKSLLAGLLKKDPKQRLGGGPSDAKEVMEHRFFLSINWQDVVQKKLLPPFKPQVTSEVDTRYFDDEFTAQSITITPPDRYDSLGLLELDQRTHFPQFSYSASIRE
- Protocol Summary: Live cell target engagement by NanoBRET competitive probe displacement, AKT2
- Experimental Context: transfected HEK293 cells, 2 h at 37° C., read-out: AKT2 IC50: GeoMean IC50
pIC50: −log10 of the molar value.
Recorded Endpoint: pIC50

Answered cases to consult:
>>> measurement("C#Cc1cc(-n2cccn2)nc2c1nc(-c1cccnc1N)n2-c1ccc2c(c1)CC[C@@H]2NC(=O)c1ccc(O)c(C=O)c1")
"5.70 to 7.00"
>>> measurement("C#Cc1ccn(-c2ccc3nc(-c4cccnc4N)n(-c4ccc5c(c4)CC[C@@H]5NC(=O)c4ccc(O)c(C=O)c4)c3n2)n1")
"5.70 to 7.00"

Lab note: next compound to report on.
[Q] What does the data say about its pIC50? Entry: "Nc1ncccc1-c1nc2ccc(-c3ccccc3)nc2n1-c1ccc2c(c1)CC[C@@H]2NC(=O)c1ccc(O)c(C=O)n1"
[A] 5.70 to 7.00

* * *

Listing of recorded pIC50 by entry.
- Target System: AKT1 WT (Homo sapiens)
- Protocol Summary: Live cell target engagement by NanoBRET competitive probe displacement, AKT1 WT
- Experimental Context: transfected HEK293 cells, 2 h at 37° C., read-out: AKT1 WT IC50: GeoMean IC50
pIC50: −log10 of the molar value.

>>> measurement("Nc1ncccc1-c1nc2ccc(-c3nccs3)nc2n1-c1ccc2c(c1)CC[C@@H]2NC(=O)c1cc(C=O)c(O)c(F)c1F")
"> 8.00"
>>> measurement("Cc1cnc(-c2ccc3nc(-c4cccnc4N)n(-c4ccc5c(c4)CC[C@@H]5NC(=O)c4ccc(O)c(C=O)c4)c3n2)s1")
"7.00 to 8.00"

Next compound, please.
[Q] What measured pIC50 goes with "CN(C)c1cc(C(=O)N[C@H]2CCc3cc(-n4c(-c5cccnc5N)nc5ccc(-n6cccn6)nc54)ccc32)cc(C=O)c1O" ?
[A] 5.70 to 7.00

* * *

- Target System: AKT1 WT (Homo sapiens)
- Protocol Summary: Live cell target engagement by NanoBRET competitive probe displacement, AKT1 WT
- Experimental Context: transfected HEK293 cells, 2 h at 37° C., read-out: AKT1 WT IC50: GeoMean IC50
pIC50: −log10 of the molar value.
Recorded Endpoint: pIC50

Some solved entries appear below for comparison.
>>> measurement("Nc1ncccc1-c1nc2ccc(-c3nccs3)nc2n1-c1ccc2c(c1)CC[C@@H]2NC(=O)c1cc(F)c(O)c(C=O)c1")
"7.00 to 8.00"
>>> measurement("Nc1ncccc1-c1nc2ccc(-c3ccccc3)nc2n1-c1ccc2c(c1)CC[C@H]2NC(=O)c1ccc(O)c(C=O)c1")
"≤ 5.70"

Let's switch to this compound now.
[Q] Param item = "CS(=O)(=O)Nc1ccc(C(=O)N[C@H]2CCc3cc(-n4c(-c5cccnc5N)nc5ccc(-c6ccccc6)nc54)ccc32)cc1C=O" ; retrieve measured pIC50.
[A] 7.00 to 8.00

* * *

- Target System: AKT1 WT (Homo sapiens)
- Protocol Summary: Live cell target engagement by NanoBRET competitive probe displacement, AKT1 WT
- Experimental Context: transfected HEK293 cells, 2 h at 37° C., read-out: AKT1 WT IC50: GeoMean IC50
# maps each entry to its IC50

Record excerpt, results attached:
>>> measurement("Cn1cc(-c2ccc3nc(-c4cccnc4N)n(-c4ccc5c(c4)CC[C@@H]5NC(=O)c4ccc(O)c(C=O)c4)c3n2)nn1")
"10 to 100 nM"
>>> measurement("CC(=O)Nc1c(F)cc(C(=O)N[C@H]2CCc3cc(-n4c(-c5cccnc5N)nc5ccc(-c6ccccc6)nc54)ccc32)cc1C=O")
"10 to 100 nM"
>>> measurement("Cc1cc(O)c(C=O)cc1C(=O)N[C@H]1CCc2cc(-n3c(-c4cccnc4N)nc4ccc(-n5cccn5)nc43)ccc21")
"100 to 2000 nM"
>>> measurement("Cc1ccc(-c2nc3ccc(-n4cccn4)nc3n2-c2ccc3c(c2)CC[C@@H]3NC(=O)c2ccc(O)c(C=O)c2)c(N)n1")
"≥ 2000 nM"
>>> measurement("Nc1ncccc1-c1nc2ccc(-n3cccn3)nc2n1-c1ccc2c(c1)CC(F)[C@@H]2NC(=O)c1ccc(O)c(C=O)c1 (single isomer, unassigned) [Example 257]")
"10 to 100 nM"

Switching to the query record.
[Q] What value of measured IC50 is listed for "Nc1ncc(F)cc1-c1nc2ccc(-n3cccn3)nc2n1-c1ccc2c(c1)CC[C@@H]2NC(=O)c1ccc(O)c(C=O)c1" ?
[A] 10 to 100 nM

* * *

- Target System: AKT1 WT (Homo sapiens, UniProt P31749)
- Sequence (P31749 whole entry): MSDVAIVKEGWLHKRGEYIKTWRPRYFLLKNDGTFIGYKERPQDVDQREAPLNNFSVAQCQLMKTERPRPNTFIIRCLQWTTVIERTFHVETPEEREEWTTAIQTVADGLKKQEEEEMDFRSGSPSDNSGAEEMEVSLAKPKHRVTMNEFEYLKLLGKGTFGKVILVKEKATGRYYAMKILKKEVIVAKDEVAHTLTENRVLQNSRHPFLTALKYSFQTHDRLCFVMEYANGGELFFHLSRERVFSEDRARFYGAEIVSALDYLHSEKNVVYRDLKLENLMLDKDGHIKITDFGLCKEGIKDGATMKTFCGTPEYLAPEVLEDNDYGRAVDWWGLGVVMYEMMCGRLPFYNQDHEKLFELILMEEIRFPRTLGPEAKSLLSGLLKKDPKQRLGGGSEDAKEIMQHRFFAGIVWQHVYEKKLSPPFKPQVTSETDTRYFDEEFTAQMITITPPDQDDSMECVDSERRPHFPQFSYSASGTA
- Protocol Summary: Live cell target engagement by NanoBRET competitive probe displacement, AKT1 WT
- Experimental Context: transfected HEK293 cells, 2 h at 37° C., read-out: AKT1 WT IC50: GeoMean IC50
pIC50: −log10 of the molar value.
Overview of reported pIC50 across a group of molecules:

Consider the following illustrative entries.
>>> measurement("Nc1ncccc1-c1nc2ccc(-n3nccn3)nc2n1-c1ccc2c(c1)CC[C@@H]2NC(=O)c1ccc(O)c(C=O)c1")
"7.00 to 8.00"
>>> measurement("Cc1cc(C)n(-c2ccc3nc(-c4cccnc4N)n(-c4ccc5c(c4)CC[C@@H]5NC(=O)c4ccc(O)c(C=O)c4)c3n2)n1")
"7.00 to 8.00"
>>> measurement("Nc1ncccc1-c1nc2cc(F)c(-n3cccn3)nc2n1-c1ccc2c(c1)CC[C@@H]2NC(=O)c1ccc(O)c(C=O)c1")
"7.00 to 8.00"

[Q] Using the record for "Nc1ncccc1-c1nc2ccc(-c3ccccc3)nc2n1-c1ccc2c(c1)CC[C@@H]2NC(=O)c1cc(C=O)c(O)cc1F" , report its pIC50.
[A] 7.00 to 8.00

[Q] Give its pIC50 value. Item: "CC(=O)Nc1ccc(C(=O)N[C@H]2CCc3cc(-n4c(-c5cccnc5N)nc5ccc(-n6cccn6)nc54)ccc32)cc1C=O"
[A] 7.00 to 8.00

[Q] Dear colleague, I am looking for the recorded pIC50 of the following molecule: "Nc1ncccc1-c1nc2ccc(-c3cnn(C(F)F)c3)nc2n1-c1ccc2c(c1)CC[C@@H]2NC(=O)c1ccc(O)c(C=O)c1"
[A] 7.00 to 8.00

[Q] Fill in: pIC50 of "[N-]=[N+]=Nc1c(C(=O)N[C@H]2CCc3cc(-n4c(-c5cccnc5N)nc5ccc(-n6cccn6)nc54)ccc32)cc(C=O)c(O)c1F" is ___
[A] 5.70 to 7.00

[Q] What does the record list as pIC50 for "Nc1ncccc1-c1nc2ccc(-n3cccn3)nc2n1-c1ccc2c(c1)CC[C@@H]2NC(=O)c1cc(C=O)c2[nH]ncc2c1" ?
[A] 7.00 to 8.00
